Each recorded value in this set is attributed to patent US20250100993A1.

Target: HSD17B14 (Homo sapiens (Human), UniProt Q9BPX1)
Sequence (Q9BPX1 whole entry): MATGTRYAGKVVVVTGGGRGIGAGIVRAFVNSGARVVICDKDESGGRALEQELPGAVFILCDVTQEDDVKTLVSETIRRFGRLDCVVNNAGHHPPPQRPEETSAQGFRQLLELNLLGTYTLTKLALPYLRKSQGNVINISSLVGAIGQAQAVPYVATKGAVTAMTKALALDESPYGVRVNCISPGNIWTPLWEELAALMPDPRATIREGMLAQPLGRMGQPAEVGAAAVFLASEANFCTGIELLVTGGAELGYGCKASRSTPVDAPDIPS
Experiment: LC/MS estrone detection assay for HSD17B14 activity (estradiol to estrone)
Assay type: biochemical
Details: selectivity for HSD17B13 over HSD17B14
measured_property: HSD17B14 fold selectivity

Sample answers from the record:
# compound_structure_string, HSD17B14 fold selectivity
measured = [
    ("O=C(Nc1sc(-c2cncc(F)c2)nc1C(=O)NCc1ccccc1C(F)(F)F)c1cc(F)c(O)c(Cl)c1", ">797 fold"),
    ("CS(=O)(=O)c1cccc(-c2nc(C(=O)NCc3ccccc3C(F)(F)F)c(NC(=O)c3cc(Cl)c(O)c(Cl)c3)s2)c1", "772 fold"),
]

// next item, HSD17B14 fold selectivity requested
Request: Under HSD17B14 (Homo sapiens (Human), UniProt Q9BPX1): HSD17B14 fold selectivity value of CS(=O)(=O)c1ccccc1-c1nc(C(=O)NCc2ccccc2C(F)(F)F)c(NC(=O)c2cc(Cl)c(O)c(Cl)n2)s1 ?
Result: >215 fold

====

Target: HSD17B2 (Homo sapiens (Human))
Sequence (P37059 whole entry): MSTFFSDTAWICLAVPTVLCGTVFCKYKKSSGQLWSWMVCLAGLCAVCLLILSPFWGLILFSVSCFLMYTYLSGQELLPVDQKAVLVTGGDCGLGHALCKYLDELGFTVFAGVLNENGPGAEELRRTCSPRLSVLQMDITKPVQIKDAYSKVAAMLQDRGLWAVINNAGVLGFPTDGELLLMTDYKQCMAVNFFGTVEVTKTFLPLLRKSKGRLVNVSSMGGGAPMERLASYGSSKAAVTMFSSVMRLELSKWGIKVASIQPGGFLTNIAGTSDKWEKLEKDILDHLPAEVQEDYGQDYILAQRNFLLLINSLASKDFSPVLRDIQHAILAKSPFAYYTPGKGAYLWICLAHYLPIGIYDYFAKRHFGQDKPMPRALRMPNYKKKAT
Assay: HSD17B2 activity via detection of NADH product (NAD-Glo luminescence)
Assay type: biochemical
Settings: selectivity for HSD17B13 over HSD17B2
Note to self: class labels come from recorded HSD17B2 fold selectivity, ranges listed here: lower (below 60 fold), middle (60 fold to below 200 fold), upper (200 fold or more)

# compound_structure_string, category
rows = [
    ("CN(C)Cc1ccc(F)c(-c2nc(C(=O)NCc3ccccc3C(F)(F)F)c(NC(=O)c3cc(F)c(O)c(Cl)c3)s2)c1", "upper"),
    ("CS(=O)(=O)c1ccccc1-c1nc(C(=O)NCc2ccccc2C(F)(F)F)c(NC(=O)c2cc(Cl)c(O)c(Cl)n2)s1", "lower"),
    ("Cn1cc(-c2nc(C(=O)NCc3ccccc3C(F)(F)F)c(NC(=O)c3cc(Cl)c(O)c(Cl)n3)s2)cn1", "lower"),
    ("N#Cc1cccc(-c2nc(C(=O)NCc3ccccc3C(F)(F)F)c(NC(=O)c3cc(F)c(O)c(Cl)c3)s2)c1", "upper"),
    ("O=C(Nc1sc(-c2ccccc2F)nc1C(=O)NCc1ccccc1C(F)(F)F)c1cc(F)c(O)c(Cl)c1", "middle"),
    ("O=C(Nc1sc(N2CCS(=O)(=O)CC2)nc1C(=O)NCc1ccccc1C(F)(F)F)c1cc(Cl)c(O)c(Cl)n1", "lower"),
    ("CS(=O)(=O)c1ccc(-c2nc(C(=O)NCc3ccccc3C(F)(F)F)c(NC(=O)c3cc(Cl)c(O)c(Cl)n3)s2)cc1", "middle"),
    ("O=C(Nc1sc(-c2cncc(F)c2)nc1C(=O)NCc1ccccc1C(F)(F)F)c1cc(F)c(O)c(Cl)c1", "middle"),
]

Request: Which of the defined bands does the recorded HSD17B2 fold selectivity of O=C(Nc1sc(C2=CCCCC2)nc1C(=O)NCc1ccccc1C(F)(F)F)c1cc(Cl)c(O)c(Cl)n1 sit within?
Result: lower

Request: Which of the defined bands does the recorded HSD17B2 fold selectivity of O=C(Nc1sc(-c2cncnc2)nc1C(=O)NCc1ccccc1C(F)(F)F)c1cc(Cl)c(O)c(Cl)n1 sit within?
Result: lower

Request: Which of the defined bands does the recorded HSD17B2 fold selectivity of O=C(Nc1sc(-c2ccccc2Cl)nc1C(=O)NCc1ccccc1C(F)(F)F)c1cc(Cl)c(O)c(Cl)n1 sit within?
Result: upper
